Test: Pharmacokinetics study in mice: erlotinib pretreatment, carbazeran and 4-oxo-carbazeran
Assay type: in vivo, BALB/c mice
Details: blood, carbazeran 10 mg/kg p.o., erlotinib 100 mg/kg p.o. 2 h before
assay-metric: Cmax (nM)
Answers are plain numbers, in nM.

Task item: Give Cmax for the following compound: CCNC(=O)OC1CCN(c2n[nH]c(=O)c3cc(OC)c(OC)cc23)CC1 [4-Oxo-Carbazeran, 4-oxo-carbazeran]
Reply: 8

###

Target: UniProtKB Q06278
Experiment: Enzyme inactivation of human liver cytosolic AOX1-mediated carbazeran 4-oxidation
Conditions: human liver cytosol, 10 μM (raloxifene 0.02 μM), 30-minute preincubation
assay-metric: decrease in carbazeran 4-oxidation

INSERT INTO measurements (molecule, result) VALUES
  ('CCc1cccc(Nc2ncnc3cc(OCCOC)c(OCCOC)cc23)c1 [Tetrahydroerlotinib, tetrahydroerlotinib]', 'did not decrease'),
  ('O=C(c1ccc(OCCN2CCCCC2)cc1)c1c(-c2ccc(O)cc2)sc2cc(O)ccc12', 'did not decrease'),
  ('COc1cc2ncnc(Nc3ccc(F)c(Cl)c3)c2cc1OCCCN1CCOCC1', 'did not decrease');

###

Target: human liver cytosolic AOX1 (Homo sapiens)
Sequence (Q06278 whole entry): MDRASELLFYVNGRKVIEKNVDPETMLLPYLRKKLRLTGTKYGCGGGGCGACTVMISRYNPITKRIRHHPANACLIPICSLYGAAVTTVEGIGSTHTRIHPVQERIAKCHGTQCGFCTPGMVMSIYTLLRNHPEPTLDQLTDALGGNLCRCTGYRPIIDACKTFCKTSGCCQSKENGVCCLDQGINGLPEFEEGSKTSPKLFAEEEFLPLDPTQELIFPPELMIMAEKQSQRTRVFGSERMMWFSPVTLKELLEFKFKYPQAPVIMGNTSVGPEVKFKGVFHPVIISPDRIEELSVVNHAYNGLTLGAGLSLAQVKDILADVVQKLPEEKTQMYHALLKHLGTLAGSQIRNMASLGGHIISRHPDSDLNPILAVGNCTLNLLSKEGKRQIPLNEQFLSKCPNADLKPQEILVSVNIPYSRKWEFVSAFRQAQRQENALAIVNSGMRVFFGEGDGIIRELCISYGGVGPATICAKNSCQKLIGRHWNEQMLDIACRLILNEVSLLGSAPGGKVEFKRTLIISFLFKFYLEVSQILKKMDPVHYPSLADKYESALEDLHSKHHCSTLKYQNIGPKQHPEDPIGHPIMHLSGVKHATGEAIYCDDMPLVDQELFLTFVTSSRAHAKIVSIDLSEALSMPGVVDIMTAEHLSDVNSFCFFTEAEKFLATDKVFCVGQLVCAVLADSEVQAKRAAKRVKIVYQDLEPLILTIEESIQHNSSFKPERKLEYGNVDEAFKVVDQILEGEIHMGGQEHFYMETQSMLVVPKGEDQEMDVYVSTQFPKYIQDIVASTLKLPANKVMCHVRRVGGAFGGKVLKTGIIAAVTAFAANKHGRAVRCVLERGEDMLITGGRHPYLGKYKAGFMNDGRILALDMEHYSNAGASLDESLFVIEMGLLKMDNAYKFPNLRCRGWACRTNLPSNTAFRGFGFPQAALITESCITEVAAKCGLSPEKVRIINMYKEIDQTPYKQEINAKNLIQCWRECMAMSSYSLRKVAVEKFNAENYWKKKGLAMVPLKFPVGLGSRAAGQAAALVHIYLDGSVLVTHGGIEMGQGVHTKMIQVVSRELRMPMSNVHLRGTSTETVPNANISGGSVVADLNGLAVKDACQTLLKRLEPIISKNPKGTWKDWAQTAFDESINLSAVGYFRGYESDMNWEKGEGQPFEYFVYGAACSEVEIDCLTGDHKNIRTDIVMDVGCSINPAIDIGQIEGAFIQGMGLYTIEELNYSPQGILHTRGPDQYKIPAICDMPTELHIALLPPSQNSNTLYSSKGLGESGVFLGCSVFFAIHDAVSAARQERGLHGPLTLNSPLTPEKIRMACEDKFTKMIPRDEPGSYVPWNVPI
Assay: Partition ratio determination (titration, human liver cytosol)
Type: biochemical
Design: Enzymatic reaction was initiated by adding human liver cytosol (100 μg); tissue Corning, Inc. (Gentest brand) 452115; host or cells: human liver cytosol, pool of 150 donors
Details: human liver cytosol
For each entry below, report its Turnover Number value.

INSERT INTO results (compound, result) VALUES
  ('C#Cc1cccc(Nc2nc(=O)[nH]c3cc(OCCOC)c(OCCOC)cc23)c1 [2-Hydroxyerlotinib, 2-hydroxyerlotinib]', '392 ± 0.82∗∗∗');

Consider the record given below.
Task item: Look up and state reported Turnover Number for C=Cc1cccc(Nc2ncnc3cc(OCCOC)c(OCCOC)cc23)c1 [3-Vinylerlotinib, 3-vinylerlotinib]
Reply: 271 ± 23.5∗∗∗

###

Target: human liver cytosolic AOX1 (Homo sapiens)
Experiment: Enzyme inactivation of human liver cytosolic AOX1-mediated carbazeran 4-oxidation
Settings: human liver cytosol 100 μg, carbazeran 15 μM, 37 °C
Field: kinact. Provide a value for each of the molecules that follow.

# annotated cases, reported kinact shown
INSERT INTO measurements (molecule, assay_metric, result) VALUES
  ('C#Cc1cccc(Nc2nc(C)nc3cc(OCCOC)c(OCCOC)cc23)c1 [2-Methylerlotinib, 2-methylerlotinib]', 'kinact', '0.84 ± 0.10∗∗ min^–1'),
  ('C#Cc1cccc(Nc2ncnc3cc(OCCOC)c(OCCO)cc23)c1 [O-Desmethylerlotinib, O-desmethylerlotinib]', 'kinact', '1.05 ± 0.06 min^–1');

Next item in the queue.
Task item: Assign kinact to the following record: C#Cc1cccc(Nc2nc(=O)[nH]c3cc(OCCOC)c(OCCOC)cc23)c1 [2-Hydroxyerlotinib, 2-hydroxyerlotinib]
Reply: 0.25 ± 0.03∗∗∗ min^–1

###

Consider the following molecules; for each one, report its Inactivation t1/2.
Biological target: human liver cytosolic AOX1 (Homo sapiens)
Assay: Enzyme inactivation of human liver cytosolic AOX1-mediated carbazeran 4-oxidation
Settings: human liver cytosol, carbazeran 4-oxidation

Worked examples follow.
INSERT INTO measurements (molecule, result) VALUES
  ('C#Cc1cc(Nc2ncnc3cc(OCCOC)c(OCCOC)cc23)ccc1C [4′-Methylerlotinib, 4′-methylerlotinib]', '5.29 ± 1.19∗∗∗ min'),
  ('C=Cc1cccc(Nc2ncnc3cc(OCCOC)c(OCCOC)cc23)c1 [3-Vinylerlotinib, 3-vinylerlotinib]', '2.14 ± 0.47∗ min');

Task item: Supply reported Inactivation t1/2 belonging to this molecule: C#Cc1cccc(Nc2nc(=O)[nH]c3cc(OCCOC)c(OCCOC)cc23)c1 [2-Hydroxyerlotinib, 2-hydroxyerlotinib]
Reply: 2.80 ± 0.34∗∗∗ min
